pIC50 values, listed per item
# assayed target: Cathepsin L2 (Homo sapiens, UniProt O60911)
# Sequence (O60911 whole entry): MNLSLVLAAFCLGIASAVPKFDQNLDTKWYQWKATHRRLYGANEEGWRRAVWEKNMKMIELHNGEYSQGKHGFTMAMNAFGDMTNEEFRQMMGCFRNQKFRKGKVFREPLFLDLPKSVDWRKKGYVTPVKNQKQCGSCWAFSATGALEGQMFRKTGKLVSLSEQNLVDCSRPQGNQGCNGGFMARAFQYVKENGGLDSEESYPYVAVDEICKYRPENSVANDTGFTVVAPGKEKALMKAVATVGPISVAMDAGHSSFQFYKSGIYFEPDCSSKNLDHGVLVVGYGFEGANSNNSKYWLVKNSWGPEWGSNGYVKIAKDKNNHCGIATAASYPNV
# test: Inhibition of recombinant human cathepsin V using Z-Phe-Arg-7-amido-4-methylcoumarin as substrate by fluorescence assay
Remember, pIC50 is on a log scale: it is -log10 of the molar concentration.

Answered examples (2):
Qu. Which measured pIC50 value corresponds to O=C(c1ccc(O)cc1O)[C@@H]1[C@H](c2ccc(O)cc2)c2cc(O)c(O)cc2[C@H](O)[C@@H]1C(=O)c1ccc(O)cc1 ?
Ans. 5.85

Qu. Also, O=C(c1ccc(O)cc1O)[C@H]1[C@H](c2ccc(O)cc2)c2cc(O)c(O)cc2[C@H](O)[C@]1(O)C(=O)c1ccc(O)cc1 please.
Ans. 6.38

---
Qu. // query pIC50 value for entry O=C1c2ccc(O)cc2OC2c3cc(O)c(O)cc3[C@@H](c3ccc(O)cc3)[C@@H](C(=O)c3ccc(O)cc3O)C12 (stereo partly drawn)
Ans. 6.15
